This collection of values is drawn from patent US20140011978A1.

Molecular target: T1, TNC III1-5 (human, UniProt P24821 622-1074)
T1 construct: The secreted protein in the assays lacks the leader; also called TG-TNC III1-5; engineered TNC III1-5
T1 sequence: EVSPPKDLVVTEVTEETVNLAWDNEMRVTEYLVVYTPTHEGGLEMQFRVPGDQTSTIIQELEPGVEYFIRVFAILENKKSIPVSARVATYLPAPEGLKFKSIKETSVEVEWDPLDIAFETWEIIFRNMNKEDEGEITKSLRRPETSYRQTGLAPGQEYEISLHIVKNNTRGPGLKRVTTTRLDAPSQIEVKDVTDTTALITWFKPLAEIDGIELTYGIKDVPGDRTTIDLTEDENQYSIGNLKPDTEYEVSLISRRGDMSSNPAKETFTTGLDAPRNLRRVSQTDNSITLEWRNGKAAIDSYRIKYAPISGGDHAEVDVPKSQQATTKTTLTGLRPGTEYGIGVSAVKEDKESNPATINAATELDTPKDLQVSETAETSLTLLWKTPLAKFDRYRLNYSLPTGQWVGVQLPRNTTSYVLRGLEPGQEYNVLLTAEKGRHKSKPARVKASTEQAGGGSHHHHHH
Test: ELISA: cytokine coated (50 nM), 100 nM TNC III1-5 in solution, HRP-anti-His, A450; black bars without, white bars with 4 µM heparin
Test readout: binding result

FGF-4 (ligand, UniProt P08620 31-206, looked up) APTAPNGTLEAELERRWESLVALSLARLPVAAQPKEAAVQSGAGDYLLGIKRLRRLYCNVGIGFHLQALPDGRIGGAHADTRDSLLELSPVERGVVSIFGVASRFFVAMSSKGKLYGSPFFTDECTFKEILLPNNYNAYESYKYPGMFIALSKNGKTKKGNRVSPTMKVTHFLPRL = binds
FGF-17 (ligand, UniProt O60258 23-216, looked up) TQGENHPSPNFNQYVRDQGAMTDQLSRRQIREYQLYSRTSGKHVQVTGRRISATAEDGNKFAKLIVETDTFGSRVRIKGAESEKYICMNKRGKLIGKPSGKSKDCVFTEIVLENNYTAFQNARHEGWFMAFTRQGRPRQASRSRQNQREAHFIKRLYQGQLPFPNHAEKQKQFEFVGSAPTRRTKRTRRPQPLT = binds
VEGF-C (ligand, UniProt P49767 112-227, looked up) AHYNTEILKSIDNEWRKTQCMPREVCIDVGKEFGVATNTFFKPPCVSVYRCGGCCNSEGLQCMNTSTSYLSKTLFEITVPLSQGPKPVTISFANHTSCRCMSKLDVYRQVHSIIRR = binds
